Cited source: patent US20240108766A1

Measured target: T1, cynomolgus (Macaca fascicularis) LRRC15 extracellular domain with C-terminal His tag (cynomolgus monkey (Macaca fascicularis), UniProt Q8TF66 22-538 (human entry))
T1 construct: Recombinant, made in HEK293; the entry holds the extracellular domain and the His tag; SPR analyte; also called TPP-9046
T1 chain: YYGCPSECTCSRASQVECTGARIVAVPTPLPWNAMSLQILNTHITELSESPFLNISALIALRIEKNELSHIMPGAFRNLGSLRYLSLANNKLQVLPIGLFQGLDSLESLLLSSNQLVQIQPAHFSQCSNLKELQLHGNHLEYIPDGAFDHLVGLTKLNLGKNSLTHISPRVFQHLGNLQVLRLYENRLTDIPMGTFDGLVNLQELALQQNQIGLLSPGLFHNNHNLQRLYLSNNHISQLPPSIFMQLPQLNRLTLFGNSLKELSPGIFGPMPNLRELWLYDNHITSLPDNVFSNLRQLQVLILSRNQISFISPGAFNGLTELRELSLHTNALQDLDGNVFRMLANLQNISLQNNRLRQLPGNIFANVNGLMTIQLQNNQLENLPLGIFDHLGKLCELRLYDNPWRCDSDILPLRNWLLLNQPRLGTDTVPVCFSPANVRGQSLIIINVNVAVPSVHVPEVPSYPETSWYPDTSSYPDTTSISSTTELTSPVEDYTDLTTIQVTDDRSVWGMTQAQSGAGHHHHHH
Experiment summary: SPR Biacore T200, 25°C, antibody captured, LRRC15 analyte
Property measured: Kd (nM)
Field: numeric (nM). Do not append units.

Below: 2 binders and their reported Kd.
Binder	Kd, nM
TPP-17405 (antibody, human IgG1, kappa, V domains shown, also called 438H-M345-F05-hIgG1Kappa) VH: EVQLVQSGAEVKKPGASVKVSCKASGYKFSSYWIEWVKQAPGQGLEWIGEILPGSDTTNYNEKFKDRATFTSDTSINTAYMELSRLRSDDTAVYYCARDRGNYRAWFQYWGQGTLVTVSS VL: DIQMTQSPSSLSASVGDRVTITCRASQRISSYLNWYQQKPGGAPKFLIYYASSLQSGVPSRFSGSGSGTDYTLTISSLQPEDFATYYCDQGLELPWTFGGGTKVEIKR	0.78
TPP-17078 (antibody, human IgG1, kappa, V domains shown, also called 438H-M308-H05-hIgGkappa) VH: EVQLVQSGAEVKKPGASVKVSCKASGYKFSSYWIEWVKQAPGQGLEWIGEILPGSDTTNYNEKFKDRATFTSDTSINTAYMELSRLRSDDTAVYYCARDRGNYRAWFGYWGQGTLVTVSS VL: DIQMTQSPSSLSASVGDRVTITCRASQSISSYLNWYQQKPGGAPKFLIYYASSLQSGVPSRFSGSGSGTDYTLTISSLQPEDFATYYCQQGFSLPWTFGGGTKVEIKR	1.8

Input: Look up and report measured Kd for this entry: TPP-1633 (antibody, human IgG1, kappa, V domains shown, also called 060E-M016-G14-hIgG1) VH: EVQLLESGGGLVQPGGSLRLSCAASGFTFSGYMMQWVRQAPGKGLEWVSGIYPSGGYTNYADSVKGRFTISRDNSKNTLYLQMNSLRAEDTATYYCAREKASDLSGSYSEALDYWGQGTLVTVSS VL: DIQMTQSPDSLSASVGDRVTITCRASQDVGSWLAWYQQKPGKAPKLLIFAASSLESGIPSRFSGSGSGTDFTLTISSLQPEDFATYYCQQANGFPLTFGGGTKVEIKR
Output: 190

Input: Give a short answer stating reported Kd for TPP-17419 (antibody, human IgG1, kappa, V domains shown, also called 438H-M307-H07-hIgG1Kappa) VH: EVQLVQSGAEVKKPGASVKVSCKASGYKFSSYWIEWVKQAPGQGLEWIGEILPGSDWTNYNEKFKDRATFTSDTSINTAYMELSRLRSDDTAVYYCARDRGNYRAWFQYWGQGTLVTVSS VL: DIQMTQSPSSLSASVGDRVTITCRISQSISSYLNWYQQKPGGAPKFLIYYASSLQSGVPSRFSGSGSGTDYTLTISSLQPEDFATYYCQQGLRLPWTFGGGTKVEIKR .
Output: 2.5

Input: Note Kd for the binder shown: TPP-17418 (antibody, human IgG1, kappa, V domains shown, also called 438H-M308-H05_B-hIgG1Kappa) VH: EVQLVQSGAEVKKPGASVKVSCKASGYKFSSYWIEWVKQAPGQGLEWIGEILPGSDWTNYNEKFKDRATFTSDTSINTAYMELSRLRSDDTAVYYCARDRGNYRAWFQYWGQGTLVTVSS VL: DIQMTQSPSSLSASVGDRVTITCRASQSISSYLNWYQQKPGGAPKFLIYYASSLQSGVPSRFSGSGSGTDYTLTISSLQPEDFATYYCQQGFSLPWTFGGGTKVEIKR
Output: 0.99

Input: Write down Kd measured for item TPP-17073 (antibody, human IgG1, kappa, V domains shown, also called 438H-M113-N15-hIgG1) VH: EVQLLESGGGLVQPGGSLRLSCAASGFTFSGYMMSWVRQAPGKGLEWVSGIYPSAGYTLYADSVKGRFTISRDNSKNTLYLQMNSLRAEDTAVYYCAREKAADLFGSYSEALDYWGQGTLVTVSS VL: DIQMTQSPDSLSASVGDRVTITCRASQDVGSWLAWYQQKPGKAPKLLIFAASYLESGIPSRFSGSGSGTDFTLTISSLQPEDFATYYCQQANGFPLTFGGGTKVEIKR
Output: 0.18

Input: Answer with reported Kd of TPP-12942 (antibody, human IgG1, kappa, V domains shown, Prior art humanized IgG1 kappa antibody, used as comparator; also called huM25; huM25-hIgG1Kappa) VH: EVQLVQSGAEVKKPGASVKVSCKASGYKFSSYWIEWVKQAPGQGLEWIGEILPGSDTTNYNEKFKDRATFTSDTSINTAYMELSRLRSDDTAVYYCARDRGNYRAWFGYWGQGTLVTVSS VL: DIQMTQSPSSLSASVGDRVTITCRASQDISNYLNWYQQKPGGAVKFLIYYTSRLHSGVPSRFSGSGSGTDYTLTISSLQPEDFATYFCQQGEALPWTFGGGTKVEIKR
Output: 36
